Data origin: the supplement of paper PMC11451515

- System: SEM cells
- ASSAY NAME: cell viability relative to DMSO control; higher = less cytotoxic
- CONDITION DETAILS: HPLM + 10% dialyzed FBS; 48 h; 1.71 µM
QUANTITY MEASURED: cell viability (%)
Unit % implied. Number only.

Form field: cell viability recorded for `CCCCOc1ccc(C(=O)Nc2ccc(F)cc2F)cc1` with SEM cells (enter value)
30.1

Form field: cell viability recorded for `CCc1cc(/C(C)=N/OCc2ccc(C3CCCCC3)c(C(F)(F)F)c2)ccc1CN1CC(C(=O)O)C1` with SEM cells (enter value)
117

Form field: cell viability recorded for `COc1cc2ncnc(Nc3ccc(F)c(Cl)c3)c2cc1OCCCN1CCOCC1` with SEM cells (enter value)
102

Form field: cell viability recorded for `CN(C)c1nc(N(C)C)nc(N(C)C)n1` with SEM cells (enter value)
92.5

Form field: cell viability recorded for `COc1cc(/C=C/C(=O)CC(=O)/C=C/c2ccc(O)c(OC)c2)ccc1O` with SEM cells (enter value)
118

Form field: cell viability recorded for `CCCn1c(=O)c2[nH]c(-c3cnn(Cc4cccc(C(F)(F)F)c4)c3)nc2n(CC)c1=O` with SEM cells (enter value)
113

Form field: cell viability recorded for `NC12CC3CC(CC(C3)C1)C2` with SEM cells (enter value)
124

Form field: cell viability recorded for `NC/1=N/C(=O)N(/C=C1)[C@H]2CC[C@@H](CO)O2` with SEM cells (enter value)
121

Form field: cell viability recorded for `COc1cc(N2CCC(N3CCN(C)CC3)CC2)ccc1Nc1ncnc(Nc2ccccc2[S+](=O)([O-])C(C)C)n1` with SEM cells (enter value)
88.4

Form field: cell viability recorded for `c1cc(OCCN2CCCCC2)cc(-c2n[nH]c3ccc(-c4nc[nH]n4)cc23)c1` with SEM cells (enter value)
57.6
